- Tested on: H3K18Ac in HB-CLS-2 cells
- Experiment description: H3K18AC in-cell western (ICW) assay
- Assay type: cell-based
- Applied conditions: H3K18Ac in-cell western; read-out: CREBBP ICW IC50
Parameter: pIC50
Reminder that pIC50 means the negative base-10 logarithm of the concentration expressed in mol/L.

Worked cases, pIC50 given:
1. CCn1ncc(CN(C)C(=O)c2nc(-c3ccc(OCCO)c(OC)c3)nc3ccc(Cl)cc23)c1C    5.68
2. CCn1ncc(CN(C)C(=O)c2nc(-c3cc(C(=O)NC)n(C)n3)nc3ccc(COC)cc23)c1C    6.47
3. CCn1ncc(CN(C)C(=O)c2nc(N3CCN(C(C)=O)CC3)nc3ccc(Cl)cc23)c1C    4.70

Provide measured pIC50 value, entry: CCn1ncc(CN(C)C(=O)c2nc(-c3ccc(OCCNC(C)=O)c(C)c3)nc3ccc(Cl)cc23)c1C
6.42

Provide measured pIC50 value, entry: CNCCNc1ccc(-c2cc(C(=O)N(C)Cc3onc(C4CC4)c3C)c3cc(Cl)ccc3n2)nc1C
5.80

Provide measured pIC50 value, entry: CCn1ncc(CN(C)C(=O)c2cc(-c3cc(NCCN(C)C)cc(C)n3)nc3ccc(Cl)cc23)c1C
7.12

Provide measured pIC50 value, entry: CCn1ncc(CN(C)C(=O)c2nc(-c3ccc4nc[nH]c4c3)nc3ccc(Cl)cc23)c1C [Compound 47]
6.37

====

- Target of assay: EP300 (P300(1048-1664)) (Homo sapiens, UniProt Q09472)
- Construct: P300(1048-1664)
- Sequence (Q09472 1048-1664): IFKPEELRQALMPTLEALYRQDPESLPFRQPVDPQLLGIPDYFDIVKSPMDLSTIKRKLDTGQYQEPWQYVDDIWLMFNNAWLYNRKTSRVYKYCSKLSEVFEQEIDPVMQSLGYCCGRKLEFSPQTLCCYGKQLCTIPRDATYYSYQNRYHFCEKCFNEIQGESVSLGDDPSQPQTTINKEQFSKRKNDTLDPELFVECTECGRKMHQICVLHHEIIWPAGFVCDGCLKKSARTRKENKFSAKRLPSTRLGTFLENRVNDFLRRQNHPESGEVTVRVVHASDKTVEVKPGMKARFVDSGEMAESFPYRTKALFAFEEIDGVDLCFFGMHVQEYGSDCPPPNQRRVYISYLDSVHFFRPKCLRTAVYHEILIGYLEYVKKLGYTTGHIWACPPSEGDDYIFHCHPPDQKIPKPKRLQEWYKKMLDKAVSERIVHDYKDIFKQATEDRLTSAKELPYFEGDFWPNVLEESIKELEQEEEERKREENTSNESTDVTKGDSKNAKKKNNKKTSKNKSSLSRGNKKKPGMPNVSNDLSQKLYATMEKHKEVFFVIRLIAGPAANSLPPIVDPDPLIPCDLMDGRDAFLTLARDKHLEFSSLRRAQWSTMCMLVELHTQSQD
- Experiment description: Biochemical assay for EP300, SAMDI
- Applied conditions: EP300, SAMDI; read-out: EP300 Biochemistry IC50
- Source text: The following example describes materials and methods relating to a biochemical assay for EP300. IC50 values (micromolar (μM)) are summarized in Table 1, Table 2, and Table 3 under the column labeled: “EP300 Biochemistry IC50 (micromolar).”
Parameter: IC50 (nM)
Kindly provide the numeric value in nM only, without the unit symbol.

Worked cases, IC50 given:
1. CCc1ncc(CN(C)C(=O)c2cc(-c3cc(C(=O)NC)n(C)n3)nc3ccc(Cl)cc23)n1C    4
2. CCn1ncc(CN(C)C(=O)c2cc(-c3ccc(NC4CNC4)c(C)n3)nc3ccc(Cl)cc23)c1C    7.4
3. CCn1ncc(CN(C)C(=O)c2nc(-c3cc(C)cc(NC(=O)CNC)c3)nc3ccc(Cl)cc23)c1C    7.7
4. CCn1ncc(CN(C)C(=O)c2nc(-c3ccc4[nH]c(C)nc4c3)nc3ccc(Cl)cc23)c1C    680
5. CCn1ncc(CN(C)C(=O)c2nc(-c3cn(CCCNC)cn3)nc3ccc(Cl)cc23)c1C    157000
6. CCn1ncc(CN(C)C(=O)c2cc(-c3cc(NCCN(C)C)cc(C)n3)nc3ccc(Cl)cc23)c1C    13.7

Then there is this compound:
Provide measured IC50 value, entry: CCn1ncc(CN(C)C(=O)c2nc(-c3ccnc(NC)c3)nc3ccc(Cl)cc23)c1C
26000

====

The entries below are paired with their reported log10 of IC50.
- Target of assay: CREBBP (1084-1701) (Homo sapiens, UniProt Q92793)
- Construct: measured in the following biochemical assay using CREBBP (1084-1701); purchased
- Sequence (Q92793 1084-1701): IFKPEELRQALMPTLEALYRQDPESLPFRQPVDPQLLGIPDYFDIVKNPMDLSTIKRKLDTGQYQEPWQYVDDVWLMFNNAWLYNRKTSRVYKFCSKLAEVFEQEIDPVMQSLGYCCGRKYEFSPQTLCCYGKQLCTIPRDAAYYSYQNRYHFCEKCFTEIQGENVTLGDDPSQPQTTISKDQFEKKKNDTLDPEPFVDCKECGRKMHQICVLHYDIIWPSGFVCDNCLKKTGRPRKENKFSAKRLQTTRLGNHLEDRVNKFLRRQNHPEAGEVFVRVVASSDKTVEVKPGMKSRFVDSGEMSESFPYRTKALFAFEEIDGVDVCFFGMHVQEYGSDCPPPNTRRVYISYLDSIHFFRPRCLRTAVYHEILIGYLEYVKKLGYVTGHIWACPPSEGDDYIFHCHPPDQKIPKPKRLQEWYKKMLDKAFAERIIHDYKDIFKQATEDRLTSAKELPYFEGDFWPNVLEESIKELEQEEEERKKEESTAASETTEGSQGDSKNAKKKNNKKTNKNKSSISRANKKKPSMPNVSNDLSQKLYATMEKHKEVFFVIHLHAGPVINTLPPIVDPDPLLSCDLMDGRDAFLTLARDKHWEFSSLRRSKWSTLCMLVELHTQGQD
- Experiment description: Biochemical assay for CREBBP (1084-1701), SAMDI
- Applied conditions: SAMDI, read-out: CREBBP Biochemistry IC50
- Description: The following example describes materials and methods relating to a biochemical assay for CREBBP (1084-1701). IC50 values (micromolar (μM)) are summarized in Table 1, Table 2, and Table 3 under the column labeled: “CREBBP Biochemistry IC50 (micromolar).” […] METHODS: The effect of compounds was measured in the following biochemical assay using CREBBP (1084-1701). […] The SAMDI biochip was then read on the mass spectrometer.
All values: base-10 log of IC50 in nM.

Worked cases, log10 of IC50 given:
1. CCn1ncc(CN(C)C(=O)c2nc(-c3ccc(NCCNC)cn3)nc3ccc(Cl)cc23)c1C [Compound 112]    3.11
2. CCn1ncc(CN(C)C(=O)c2cc(-c3ccc(NC4COC4)c(C)n3)nc3ccc(Cl)cc23)c1C [Compound 454]    1.36
3. CCn1ncc(CN(C)C(=O)c2nc(-c3cccc(Cl)c3)nc3ccc(Cl)cc23)c1C [Compound 71]    0.97
4. CCn1ncc(CN(C)C(=O)c2nc(-c3cccc(Br)c3)nc3ccc(Cl)cc23)c1C [Compound 283]    -0.05
5. CCn1ncc(CN(C)C(=O)c2nc(-c3ccc4c[nH]nc4c3Cl)nc3ccc(COC)cc23)c1C [Compound 52]    2.40
6. CCn1ncc(CN(C)C(=O)c2nc(-c3ccc4[nH]c(C)nc4c3)nc3ccc(Cl)cc23)c1C [Compound 39]    2.81

Provide measured log10 of IC50 value, entry: CCn1ncc(CN(C)C(=O)c2cc(-c3cccnc3)nc3ccc(Cl)cc23)c1C [Compound 364]
4.53

Provide measured log10 of IC50 value, entry: CCn1ncc(CN(C)C(=O)c2nc(-c3cc(Cl)cc(NCCCN(C)C(=O)OC(C)(C)C)c3)nc3ccc(Cl)cc23)c1C [Compound 115]
2.20

====

- Target of assay: CREBBP (1084-1701) (Homo sapiens, UniProt Q92793)
- Construct: measured in the following biochemical assay using CREBBP (1084-1701); purchased
- Experiment description: Biochemical assay for CREBBP (1084-1701), SAMDI
- Applied conditions: SAMDI, read-out: CREBBP Biochemistry IC50
Parameter: IC50

1) CCn1ncc(CN(C)C(=O)c2cc(-c3ccc(NCC(F)(F)CNC)c(C)n3)nc3ccc(Cl)cc23)c1C [Compound 534]    0.0324 µM
2) CCn1ncc(CN(C)C(=O)c2nc(-c3cccc(Cl)c3)nc3cc(N4CCOCC4)c(Cl)cc23)c1C [Compound 200]    190 µM
3) CCc1nn(C)c(CN(C)C(=O)c2cc(-c3ccc(NCCN(C)C)c(C)n3)nc3ccc(Cl)cc23)c1C [Compound 587]    14.2 µM
4) CCn1ncc(CN(C)C(=O)c2nc(-c3cccc(C#N)c3)nc3ccc(Cl)cc23)c1C [Compound 301]    2 µM
5) CCn1ncc(CN(C)C(=O)c2cc(-c3cccc(Cl)c3)nc3ccccc23)c1C [Compound 352]    41 µM
6) CCn1ncc(CN(C)C(=O)c2cc(-c3ccc(OCC(=O)NC)c(OC)c3)nc3ccc(Cl)cc23)c1C [Compound 122]    4.5 µM

Provide measured IC50 value, entry: CCc1ncc(CN(C)C(=O)c2cc(-c3cc(NCCNC)cc(OC)n3)nc3ccc(Cl)cc23)n1C [Compound 567]
0.0797 µM

Provide measured IC50 value, entry: CCn1ncc(CN(C)C(=O)c2nc(-c3ncccn3)nc3ccc(Cl)cc23)c1C [Compound 278]
132 µM

Provide measured IC50 value, entry: CCn1ncc(CN(C)C(=O)c2nc(-c3cccc(Cl)c3)nc3ccccc23)c1C [Compound 130]
2 µM

====

- Tested on: H3K18Ac in HB-CLS-2 cells
- Experiment description: H3K18AC in-cell western (ICW) assay
- Assay type: cell-based
- Applied conditions: H3K18Ac in-cell western; read-out: CREBBP ICW IC50
Decide using IC50 alone. Strictly below 400 nM: 1. Equal to or above 400 nM: 0.

1. CCn1ncc(CN(C)C(=O)c2nc(-c3ccc(OCCN)c(C)c3)nc3ccc(Cl)cc23)c1C    0
2. CCN(Cc1cnn(CC)c1C)C(=O)c1cc(-c2ccc(NCCNC)c(C)n2)nc2ccc(Cl)cc12    0
3. CCc1ncc(CN(C)C(=O)c2nc(-c3cc(C)nc(NCCNC)c3)nc3ccc(Cl)cc23)n1C    1
4. Cc1nc(-c2cc(C(=O)N(C)Cc3cn(C)c(CC(F)(F)F)n3)c3cc(Cl)ccc3n2)ccc1NCCN(C)C    0

Quick check: does CCn1ncc(CN(C)C(=O)c2nc(-c3cc4c(NC)[nH]nc4cc3C)nc3ccc(C4CC4)cc23)c1C have IC50 under 400 nM?
1

Quick check: does CCn1nc(C)c(CN(C)C(=O)c2cc(-c3ccc(NCCNC)c(C)n3)nc3ccc(Cl)cc23)c1C have IC50 under 400 nM?
0

Quick check: does CCn1ncc(CN(C)C(=O)c2cc(-c3ccccc3)nc3ccc(C)cc23)c1C have IC50 under 400 nM?
0

Quick check: does CCn1ncc(CN(C)C(=O)c2nc(-c3ccc(OCCNC)c(Cl)c3)nc3ccc(S(C)(=O)=O)cc23)c1C have IC50 under 400 nM?
0

Quick check: does CCc1noc(CN(C)C(=O)c2nc(-c3cc4c(NC)[nH]nc4cc3C)nc3ccc(Cl)cc23)c1C have IC50 under 400 nM?
1

Quick check: does CNc1[nH]nc2cc(C)c(-c3nc(C(=O)N(C)Cc4cnn(CC(F)(F)F)c4C)c4cc(Cl)ccc4n3)cc12 have IC50 under 400 nM?
1
